Tested on: HepG2-CANX-COX4
experiment_description: phenotypically active (imaging signature differs from DMSO and reproducible) at any of 0.3-9 uM (binary (1 = active, 0 = inactive)); higher = active
experimental_setup: treatment time: 24 h
Where a name gives a salt, the structure may show the parent alone.
Classes used: active, inactive

compound=CC(C)c1ccc(NC(=O)Cn2cnc3c2c(=O)n(C)c(=O)n3C)cc1 target_under_test=HepG2-CANX-COX4 classification=inactive
compound=CCCSc1nc2c(c(=O)n1-c1ccccc1)SCC2 target_under_test=HepG2-CANX-COX4 classification=inactive
compound=C/C(=C/c1ccc(C(=O)O)cc1)c1ccc2c(c1)C(C)(C)CCC2(C)C target_under_test=HepG2-CANX-COX4 classification=inactive
compound=C[C@@H]1CN(CC(=O)Nc2ccc3c(c2)Cc2cccc(-c4cc(=O)cc(N5CCOCC5)o4)c2S3)C[C@H](C)O1 target_under_test=HepG2-CANX-COX4 classification=active
compound=OCCN1C[C@H](O)[C@@H](O)[C@H](O)[C@H]1CO target_under_test=HepG2-CANX-COX4 classification=inactive
compound=CN/C(=C/[N+](=O)[O-])NCCSCc1csc(CN(C)C)n1 target_under_test=HepG2-CANX-COX4 classification=inactive
compound="CCN(CC)C(C)CN1c2ccccc2Sc2ccccc21 (stereo not given)" target_under_test=HepG2-CANX-COX4 classification=inactive
compound="O=C(O)CCc1ccccc1 [Hydrocinnamic acid]" target_under_test=HepG2-CANX-COX4 classification=inactive
compound=CC1(C)CC(=O)c2c(S(C)(=O)=O)sc(Cl)c2C1 target_under_test=HepG2-CANX-COX4 classification=inactive
compound="COc1ccc(OC)c(C(O)CNC(=O)CN)c1 (stereo not given)" target_under_test=HepG2-CANX-COX4 classification=inactive
compound="CN(C)C(=N)NC(=N)N [Metformin hydrochloride]" target_under_test=HepG2-CANX-COX4 classification=inactive
compound=COC(=O)/C=C/c1cccc(N(Cc2ccc(-c3ccc(N(C)C)cc3)cc2)C(=O)C2CCCCC2)c1 target_under_test=HepG2-CANX-COX4 classification=inactive
compound=NC(=O)C(c1ccccc1)(c1ccc(F)cc1)c1ccc(F)cc1 target_under_test=HepG2-CANX-COX4 classification=inactive
compound="CC1=Nc2ccc(Cl)cc2S(=O)(=O)N1 [diazoxide]" target_under_test=HepG2-CANX-COX4 classification=inactive
compound="CCC(=C(CC)c1ccc(O)cc1)c1ccc(O)cc1 (stereo in doubt)" target_under_test=HepG2-CANX-COX4 classification=inactive
compound=COc1cc2nc(N3CCCN(C)CC3)nc(NC3CCN(Cc4ccccc4)CC3)c2cc1OC target_under_test=HepG2-CANX-COX4 classification=active
compound=O=C(Nc1ccccc1)c1cc([N+](=O)[O-])ccc1Cl target_under_test=HepG2-CANX-COX4 classification=inactive
compound=CN1c2ccc([N+](=O)[O-])cc2N=C(c2ccc(C(=O)O)cc2)c2cc3c(cc21)C(C)(C)CCC3(C)C target_under_test=HepG2-CANX-COX4 classification=inactive
compound="C#C[C@]1(OC(C)=O)CC[C@H]2[C@@H]3CCC4=CC(=NO)CC[C@@H]4[C@H]3CC[C@@]21CC [norgestimate]" target_under_test=HepG2-CANX-COX4 classification=inactive
compound="Oc1cc(O)c2c(c1)O[C@H](c1ccc(O)c(O)c1)[C@@H](O)C2 [Epicatechin-(-)]" target_under_test=HepG2-CANX-COX4 classification=inactive

----------
Tested on: HepG2-CANX-COX4
experiment_description: phenotypically active (imaging signature differs from DMSO and reproducible) at any of 0.3-9 uM (binary (1 = active, 0 = inactive)); higher = active
experimental_setup: treatment time: 24 h
Where a name gives a salt, the structure may show the parent alone.
Recorded phenotypically active by entry
observation_type: phenotypically active

compound=CCN(CC)CCOC(=O)C1(C2CCCCC2)CCCCC1 target_under_test=HepG2-CANX-COX4 readout_number=0
compound=C[C@]12CC[C@@H]3c4ccc(OS(=O)(=O)O)cc4CC[C@H]3[C@@H]1CCC2=O target_under_test=HepG2-CANX-COX4 readout_number=0
compound=O=C1CCc2c(ccc3ccccc23)O1 target_under_test=HepG2-CANX-COX4 readout_number=0
compound="Fc1ccccc1CNCc1ccc(-c2ccnc3[nH]ccc23)cc1 [OXA 06 dihydrochloride]" target_under_test=HepG2-CANX-COX4 readout_number=1
compound=O=c1c(O)c(-c2ccc(O)c(O)c2)oc2cc(O)cc(O)c12 target_under_test=HepG2-CANX-COX4 readout_number=0
compound=CC[C@]12CCCN3CCc4c(n(c5ccccc45)[C@@](O)(C(=O)OC)C1)[C@@H]32 target_under_test=HepG2-CANX-COX4 readout_number=0
compound="CCN1CCN(C(c2cccnc2)c2cc(Cl)c3cccnc3c2O)CC1 (centres undefined)" target_under_test=HepG2-CANX-COX4 readout_number=1
compound=O=c1ncn2nc(Sc3ccc(F)cc3F)ccc2c1-c1c(Cl)cccc1Cl target_under_test=HepG2-CANX-COX4 readout_number=0
compound=C[C@H](NC(=O)[C@@H](O)c1cc(F)cc(F)c1)C(=O)N[C@@H]1C(=O)N(C)c2ccccc2-c2ccccc21 target_under_test=HepG2-CANX-COX4 readout_number=1

----------
Test system: HepG2-TP53BP1-CLTA
experiment_description: lowest phenotypically active concentration; higher = less potent
experimental_setup: treatment time: 24 h
Counter-ions that a name gives are not always drawn.
observation_type: lowest phenotypically active concentration (µM)

molecule="COc1ccc2cc1Oc1ccc(cc1)C[C@H]1c3cc(c(OC)cc3CCN1C)Oc1c(OC)c(OC)cc3c1[C@H](C2)N(C)CC3 [Tetrandrine]" bound_sign== readout_number=1
molecule=O=C1/C(=C\c2ccncc2)CCC/C1=C\c1ccncc1 bound_sign== readout_number=3
molecule="COc1cc(C(=O)NC2CCN(C)CC2)c(F)cc1Nc1ncc2c(n1)N(C1CCCC1)CC(F)(F)C(=O)N2C [TAK 960 hydrochloride]" bound_sign=≤ readout_number=0.3
molecule=C[C@@H]1CCN(C(=O)CC#N)C[C@@H]1N(C)c1ncnc2[nH]ccc12 bound_sign== readout_number=9
molecule="COc1c(C=O)c(O)cc2c1C(=O)c1ccccc1C2=O [Damnacanthal]" bound_sign== readout_number=9
molecule="C=C1C(=O)O[C@@H]2C=C(C)CCC=C(C)CC[C@@H]12 [Costunolide]" bound_sign== readout_number=9
molecule=Cc1cc(C)cc(C(=O)NOCCCCCC(=O)NO)c1 bound_sign== readout_number=1
molecule=COc1cc(N2CCC(N3CCN(C)CC3)CC2)ccc1Nc1ncnc(Nc2ccccc2S(=O)(=O)C(C)C)n1 bound_sign== readout_number=9
molecule=CCc1nc(-c2cccc(C)c2)c(-c2ccnc(NC(=O)c3ccccc3)c2)s1 bound_sign== readout_number=3

----------
System: HepG2-GM130-SQSTM1
experiment_description: phenotypically active (imaging signature differs from DMSO and reproducible) at any of 0.3-9 uM (binary (1 = active, 0 = inactive)); higher = active
experimental_setup: treatment time: 24 h
Where a name gives a salt, the structure may show the parent alone.
Possible outcomes: active, inactive

compound=COc1ccc(CCc2nc3c(C)c(-c4c(C)noc4C)c(C)cc3n2CCN2CCOCC2)cc1 classification=inactive
compound="CC[C@]12CCCN3CCc4c(n(c5ccccc45)[C@@](O)(C(=O)OC)C1)[C@@H]32 [Vincamine]" classification=inactive
compound="C[C@@H]1O[C@@H](OC[C@H]2O[C@@H](Oc3c(-c4ccc(O)c(O)c4)oc4cc(O)cc(O)c4c3=O)[C@H](O)[C@@H](O)[C@@H]2O)[C@H](O)[C@H](O)[C@H]1O [Quercétine-3-rutinoside]" classification=inactive
compound="CNC[C@H](O)c1ccc(O)c(O)c1 [epinephrine]" classification=inactive
compound="Nc1ncnc2c1nc(Cl)n2C1O[C@H](CO)[C@@H](O)[C@H]1O (stereo partly drawn) [8-Chloroadenosine]" classification=active
compound=COc1ccc(Cn2ccc3ccc(C(=O)NO)cc32)cc1 classification=inactive
compound="CCN(CCO)CCCOc1ccc2c(Nc3cc(CC(=O)Nc4cccc(F)c4)n[nH]3)ncnc2c1 [barasertib-HQPA]" classification=active
compound="CCOC(=O)[C@H](CCc1ccccc1)N[C@@H](C)C(=O)N1Cc2ccccc2C[C@H]1C(=O)O [quinapril]" classification=inactive
compound="CC(C)(Oc1ccc(C2CC2(Cl)Cl)cc1)C(=O)O (stereo not drawn) [ciprofibrate]" classification=inactive
compound="C=C[C@H]1[C@H](O[C@@H]2O[C@H](CO)[C@@H](O)[C@H](O)[C@H]2O)OC=C2C(=O)NCC[C@H]21 [Bakankosine]" classification=inactive
compound="Nc1nc(Cl)nc2c1ncn2[C@H]1C[C@H](O)[C@@H](CO)O1 [cladribine]" classification=active
compound="Cc1cc(O)cc2c1C(=O)Oc1cc3c(c(O)c1O2)C(=O)OC3 [Variolaric acid]" classification=inactive
compound=NC1(C(=O)N[C@@H](CCO)c2ccc(Cl)cc2)CCN(c2ncnc3[nH]ccc23)CC1 classification=active
compound=COc1ccc(Cl)cc1NC(=O)Nc1cc(C)nc2ccccc12 classification=active
compound="CO/N=C/C1=CCCN(C)C1 [Milameline hydrochloride]" classification=inactive
compound=CC[C@H](CO)Nc1nc(NCc2ccc(-c3ccccn3)cc2)c2ncn(C(C)C)c2n1 classification=active
compound=COc1ccc2c(NC(=O)Nc3cccc(C(F)(F)F)n3)ccnc2c1 classification=active
compound="CC(C)CCN1c2nc(Nc3cc(F)c(O)c(F)c3)ncc2N(C)C(=O)C1C (stereo not drawn)" classification=active
